Target: Aminopeptidase N (Plasmodium falciparum FcB1/Columbia)
Sequence (O96935 whole entry): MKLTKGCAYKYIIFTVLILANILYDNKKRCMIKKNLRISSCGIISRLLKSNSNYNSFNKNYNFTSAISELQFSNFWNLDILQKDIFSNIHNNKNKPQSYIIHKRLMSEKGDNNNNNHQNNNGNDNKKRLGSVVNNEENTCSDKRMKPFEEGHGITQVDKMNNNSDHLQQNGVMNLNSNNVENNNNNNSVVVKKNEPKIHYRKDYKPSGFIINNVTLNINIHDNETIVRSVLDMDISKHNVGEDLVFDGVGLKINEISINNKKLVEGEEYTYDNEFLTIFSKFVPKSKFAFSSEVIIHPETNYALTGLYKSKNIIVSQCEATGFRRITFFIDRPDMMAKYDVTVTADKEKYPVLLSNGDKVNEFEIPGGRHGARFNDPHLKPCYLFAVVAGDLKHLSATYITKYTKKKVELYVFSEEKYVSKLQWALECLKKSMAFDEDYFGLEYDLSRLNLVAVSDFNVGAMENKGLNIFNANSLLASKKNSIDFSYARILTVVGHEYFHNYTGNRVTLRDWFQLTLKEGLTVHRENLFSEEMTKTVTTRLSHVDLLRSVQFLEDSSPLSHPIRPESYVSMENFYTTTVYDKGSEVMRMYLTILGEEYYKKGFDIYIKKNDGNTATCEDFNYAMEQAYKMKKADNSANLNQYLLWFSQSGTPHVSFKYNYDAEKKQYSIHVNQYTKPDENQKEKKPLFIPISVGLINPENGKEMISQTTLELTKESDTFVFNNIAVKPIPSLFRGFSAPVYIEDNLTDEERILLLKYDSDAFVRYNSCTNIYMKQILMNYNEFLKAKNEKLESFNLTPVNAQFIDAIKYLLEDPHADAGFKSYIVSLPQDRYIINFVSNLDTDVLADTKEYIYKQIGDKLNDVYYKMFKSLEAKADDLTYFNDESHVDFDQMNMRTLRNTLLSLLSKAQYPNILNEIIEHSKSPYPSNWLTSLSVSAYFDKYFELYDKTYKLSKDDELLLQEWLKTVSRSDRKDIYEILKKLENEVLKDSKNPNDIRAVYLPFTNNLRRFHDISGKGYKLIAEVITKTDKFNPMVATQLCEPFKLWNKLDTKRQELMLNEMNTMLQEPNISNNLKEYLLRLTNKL
Assay: malaria alanyl aminopeptidase activity blockers – biochemical, fluorogenic H-Leu-NHMec substrate, 1536-well (AID 1445)
Design: species or system Plasmodium falciparum 3D7, 3D7
The source made the active and inactive calls.
Measurement Name: IC50

Compound	Reported
O=C(NN1C(=O)c2ccccc2NC1c1ccoc1)c1ccccc1 (configuration not stated)	46.5 µM (active)
CN(C)C=O.NS(=O)(=O)c1cccc(NC(=O)CSc2nc(O)c3c(C(F)(F)F)cc(-c4cccs4)nc3n2)c1	30.5 µM (active)
C=CCn1c(CNC(=O)c2ccccc2F)nnc1SCC(=O)NC(C)c1ccccc1 (configuration not stated)	103 µM (active)
Cc1ccccc1S(=O)(=O)Nc1ncnc2scc(-c3ccccc3)c12	24.3 µM (active)
CCOC(=O)CC1C(=O)NCCN1c1nc2ccc(C)cn2c(=O)c1/C=C1\SC(=S)N(CC(C)C)C1=O (configuration not stated)	35.7 µM (active)

Record CCn1c(CSc2nc3ccccc3s2)nnc1SCC(=O)c1ccc(O)c(O)c1 . Reported IC50: 68.8 µM (active)

Record Nc1nnc(SCC(=O)Nc2ccccc2-c2ccccc2)[nH]1 . Reported IC50: 51.2 µM (active)

###

Target: Apoptotic protease-activating factor 1 (Homo sapiens)
Sequence (O14727 whole entry): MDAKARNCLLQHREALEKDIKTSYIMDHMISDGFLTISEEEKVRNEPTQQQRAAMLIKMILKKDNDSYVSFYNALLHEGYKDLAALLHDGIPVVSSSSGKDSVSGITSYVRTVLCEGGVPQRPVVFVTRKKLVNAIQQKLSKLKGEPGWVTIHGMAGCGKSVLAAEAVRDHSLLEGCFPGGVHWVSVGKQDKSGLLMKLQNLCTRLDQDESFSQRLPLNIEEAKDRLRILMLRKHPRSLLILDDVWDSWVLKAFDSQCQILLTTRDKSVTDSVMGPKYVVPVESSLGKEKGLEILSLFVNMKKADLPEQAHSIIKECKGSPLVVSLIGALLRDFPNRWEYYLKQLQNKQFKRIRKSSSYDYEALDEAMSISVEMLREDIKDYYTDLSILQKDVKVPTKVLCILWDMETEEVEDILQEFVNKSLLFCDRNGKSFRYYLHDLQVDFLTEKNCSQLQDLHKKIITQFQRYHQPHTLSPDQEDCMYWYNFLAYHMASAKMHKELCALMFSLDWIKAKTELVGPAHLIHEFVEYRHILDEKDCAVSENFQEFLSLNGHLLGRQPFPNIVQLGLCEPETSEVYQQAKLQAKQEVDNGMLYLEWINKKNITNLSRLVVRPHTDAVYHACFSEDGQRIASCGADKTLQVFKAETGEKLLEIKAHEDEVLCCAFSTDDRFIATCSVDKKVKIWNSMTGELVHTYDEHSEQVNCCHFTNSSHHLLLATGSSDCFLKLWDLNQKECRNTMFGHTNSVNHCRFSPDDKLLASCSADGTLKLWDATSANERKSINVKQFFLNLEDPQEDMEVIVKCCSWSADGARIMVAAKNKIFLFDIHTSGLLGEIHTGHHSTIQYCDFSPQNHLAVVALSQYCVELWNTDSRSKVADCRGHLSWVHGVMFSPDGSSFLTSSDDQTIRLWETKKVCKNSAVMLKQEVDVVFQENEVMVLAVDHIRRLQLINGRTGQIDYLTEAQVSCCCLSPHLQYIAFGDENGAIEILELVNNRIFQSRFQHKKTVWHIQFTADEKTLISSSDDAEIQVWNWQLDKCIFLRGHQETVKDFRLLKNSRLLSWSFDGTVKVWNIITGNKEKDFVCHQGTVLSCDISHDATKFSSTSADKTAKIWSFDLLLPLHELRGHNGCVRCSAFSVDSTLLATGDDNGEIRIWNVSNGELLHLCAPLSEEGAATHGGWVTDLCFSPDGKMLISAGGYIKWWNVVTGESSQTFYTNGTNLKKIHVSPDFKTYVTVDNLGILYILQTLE
Format: functional
The source made the active and inactive calls.
Measurement Name: IC50

Record Nc1ccc2c(c1)C(=O)C(=O)c1ccccc1-2 . Reported IC50: 0.768 µM (active)

Record COC(CNC(=O)c1ccc2c3c(onc13)-c1ccccc1C2=O)OC . Reported IC50: 25.2 µM (active)

Record COc1ccc(OC)c(Nc2cc3ccccc3c(O)n2)c1 . Reported IC50: 2.5 µM (active)

Record O=C(O)c1ccc(NC2=C/C(=N/S(=O)(=O)c3ccccc3)c3ccccc3C2=O)cc1 . Reported IC50: 3.15 µM (active)

Record COc1cc(-c2ccc(Nc3ccccc3C(=O)O)c(OC)c2)ccc1Nc1ccccc1C(=O)O . Reported IC50: 26.7 µM (active)

Record CCc1ccc(CNc2ccc(O)cc2)cc1 . Reported IC50: 27.5 µM (active)

###

target: Tyrosyl-DNA phosphodiesterase 2 (Homo sapiens); test: potency against TDP2 phosphodiesterase activity – biochemical, epi absorbance, IC50, dose response (AID 743297)
Sequence (O95551 whole entry): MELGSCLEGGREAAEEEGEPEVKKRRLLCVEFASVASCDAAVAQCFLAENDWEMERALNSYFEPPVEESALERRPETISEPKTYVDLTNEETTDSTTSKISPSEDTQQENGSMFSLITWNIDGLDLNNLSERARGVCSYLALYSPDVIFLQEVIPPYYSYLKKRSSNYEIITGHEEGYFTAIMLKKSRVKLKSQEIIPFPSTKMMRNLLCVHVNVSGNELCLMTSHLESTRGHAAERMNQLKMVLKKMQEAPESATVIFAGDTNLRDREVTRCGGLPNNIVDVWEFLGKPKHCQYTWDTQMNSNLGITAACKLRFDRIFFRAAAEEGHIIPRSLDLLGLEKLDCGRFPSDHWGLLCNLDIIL
Active and inactive are the calls of the source.
Response enum: 1 (active), 0 (inactive)

These solved cases illustrate the format of a correct answer.
Smiles Code	Qualitative Label
COc1ccc(OC)c(Nc2cc3ccccc3c(O)n2)c1	0
O=C(Nc1c(-c2ccc3c(c2)OCO3)[nH][nH]c1=O)c1ccc2c(c1)OCO2	0
O=C(O)c1ccc(NC2=C/C(=N/S(=O)(=O)c3ccccc3)c3ccccc3C2=O)cc1	1
Cc1[nH][nH]c(=O)c1C(c1ccc(-c2ccc(C(=O)O)cc2)o1)c1c(C)[nH][nH]c1=O	0

Here's the next entry for you.
Query: What did this assay record as the result for Nc1ccc2c(c1)C(=O)C(=O)c1ccccc1-2 ?
Reply: 1

###

target: Rac GTPase-activating protein 1 (Homo sapiens); test: blockers of MgcRacGAP-driven Rac1 GTP hydrolysis – biochemical, ADP Hunter fluorescence, primary and confirmatory, confirmation (AID 624330); assay type: functional
Sequence (Q9H0H5 whole entry): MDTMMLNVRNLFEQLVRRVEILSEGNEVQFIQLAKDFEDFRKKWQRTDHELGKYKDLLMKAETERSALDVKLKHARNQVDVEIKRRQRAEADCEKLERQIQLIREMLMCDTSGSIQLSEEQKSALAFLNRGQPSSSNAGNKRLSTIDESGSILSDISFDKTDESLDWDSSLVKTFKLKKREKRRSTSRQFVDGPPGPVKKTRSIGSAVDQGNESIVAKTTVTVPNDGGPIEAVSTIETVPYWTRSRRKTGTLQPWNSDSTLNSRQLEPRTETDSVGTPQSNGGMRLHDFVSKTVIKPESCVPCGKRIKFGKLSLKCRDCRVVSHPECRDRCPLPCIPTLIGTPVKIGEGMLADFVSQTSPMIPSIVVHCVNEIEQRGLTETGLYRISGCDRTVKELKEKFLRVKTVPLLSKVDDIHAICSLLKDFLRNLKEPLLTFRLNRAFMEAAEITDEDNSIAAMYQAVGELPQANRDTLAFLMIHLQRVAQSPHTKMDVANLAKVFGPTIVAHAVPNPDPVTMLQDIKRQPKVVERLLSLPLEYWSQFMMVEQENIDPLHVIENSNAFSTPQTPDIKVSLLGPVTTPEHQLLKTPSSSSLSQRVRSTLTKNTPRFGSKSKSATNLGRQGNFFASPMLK
Active and inactive are the calls of the source.
Measurement Name: IC50

// below: answered molecules
Molecule	Measurement Name	Reported
O=C(Cn1cc(C(F)(F)F)ccc1=O)N/N=C/c1ccc(O)cc1	IC50	95.1 µM (active)
Cn1nccc1C(=O)Nc1ccc(OC(=O)c2ccnn2C)cc1	IC50	16.7 µM (active)
CCOc1cc(CNc2ccc3c(c2)OCCO3)cc(Br)c1OCC(N)=O	IC50	99.3 µM (active)

Record Cc1ccc(OCC(=O)N2CCN(CC3CC4C=CC3C4)CC2)cc1 (stereo not drawn) . Reported IC50: 293 µM (active)

Record CN(C)CCCn1c(SCc2ccc(Cl)cc2)nnc1-c1ccncc1 . Reported IC50: 121 µM (active)

Record CCN(c1ccccc1)S(=O)(=O)c1ccc(N2CCN(c3ccc(O)cc3)CC2)nc1 . Reported IC50: 40.5 µM (active)

###

Molecular target: Carboxy-terminal domain RNA polymerase II polypeptide A small phosphatase 1 (Homo sapiens)
Sequence (Q9GZU7 whole entry): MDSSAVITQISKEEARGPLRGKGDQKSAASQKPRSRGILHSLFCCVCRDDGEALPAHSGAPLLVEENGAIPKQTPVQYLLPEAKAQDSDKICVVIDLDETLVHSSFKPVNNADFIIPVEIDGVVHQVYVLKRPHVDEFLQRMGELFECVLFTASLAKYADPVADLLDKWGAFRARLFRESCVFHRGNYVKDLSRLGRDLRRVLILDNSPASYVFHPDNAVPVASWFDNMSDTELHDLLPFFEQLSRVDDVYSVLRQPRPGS
Assay: CTDSP1 inhibitors, concentration-response, biochemical, absorbance readout, ultra-high-throughput screen actives (AID 540297)
Type: functional
Calls of active or inactive are those of the source.
Measurement Name: IC50

// below: answered compounds
Compound	Experimental Target	IC50
Cc1cc2ccccn2c1C(=O)c1ccc(N/N=C/c2ccc(C(=O)O)cc2)c([N+](=O)[O-])c1	Carboxy-terminal domain RNA polymerase II polypeptide A small phosphatase 1 (Homo sapiens)	1.02 µM (active)
COCC(C)n1c(C)cc(C(=O)COC(=O)c2c(NC(C)=O)sc(C)c2C)c1C (stereo not given)	Carboxy-terminal domain RNA polymerase II polypeptide A small phosphatase 1 (Homo sapiens)	9.88 µM (active)
Cc1ccc(C(=O)O)cc1-c1ccc(C=C2C(=O)c3ccccc3C2=O)o1	Carboxy-terminal domain RNA polymerase II polypeptide A small phosphatase 1 (Homo sapiens)	13.7 µM (active)
Cc1ccc(S(=O)(=O)N2CCN(C(=O)COC(=O)CCOc3ccccc3C)CC2)c(C)c1	Carboxy-terminal domain RNA polymerase II polypeptide A small phosphatase 1 (Homo sapiens)	10.7 µM (active)

Record CC(=O)Nc1ccc(N/C=C2\C(=O)NC(=O)N(Cc3ccco3)C2=O)cc1 . Reported IC50: 9.73 µM (active)
